# Test system: DIV14
# ASSAY PROTOCOL: qHTS profiling for inhibitors of Plasmodium falciparum proliferation (AID 504749); note: nearly all actives have a fitted effect of over 60% in size
# ASSAY CONDITIONS: P. falciparum in erythrocytes, SYBR Green DNA, 72 h; series mostly up to 28.7 µM
Inconclusive results are not listed. Calls of active or inactive are those of the source. Calls come from the whole dose curve; as a rule, active = well fitted inhibition curve with a large enough effect; inconclusive = small, poorly fitted or top-dose-only effect; inactive = flat fitted curve, though single readings scatter.
Pick one and only one: active, inactive

- COMPOUND: "CCCCCCCCCCCCCC[N+](C)(C)C"
  CLASS NAME: "active"
- COMPOUND: "Nc1ncnc2nc[nH]c12"
  CLASS NAME: "inactive"
- COMPOUND: "CCCCCCCCCCCCCCCC[n+]1ccccc1"
  CLASS NAME: "active"
- COMPOUND: "Nc1c2ccccc2nc2ccccc12"
  CLASS NAME: "active"
- COMPOUND: "CC(NCCC(c1ccccc1)c1ccccc1)c1ccccc1 (stereo not drawn)"
  CLASS NAME: "active"
- COMPOUND: "CCCCCCCCCCCCCCCC[N+](C)(C)Cc1ccccc1"
  CLASS NAME: "active"
- COMPOUND: "CN1CCCN(C(c2ccccc2)c2ccc(Cl)cc2)CC1 (stereo not drawn)"
  CLASS NAME: "active"

Below: the item to evaluate.
// param item: O=C(Nc1ccc(Cl)cc1)Nc1ccc(Cl)c(Cl)c1 ; yields the recorded call
active

----------
# ASSAY PROTOCOL: Primary qHTS for inhibitors of nuclear receptor binding SET domain protein 2 (NSD2) in an isogenic RCH-ACV NSD2 p.E1099K mutant (9B) (AID 1645876); note: nearly all actives have a fitted effect of over 70% in size
# ASSAY CONDITIONS: RCH-ACV (leukaemia line) NSD2 E1099K (9B) viability, CellTiter-Glo, 72 h; series mostly up to 44.9 µM
Results filed as inconclusive are left out. Activity calls are given as the source filed them. Calls follow the shape of the dose curve; as a rule, active = well fitted inhibition curve with a large enough effect; inconclusive = small, poorly fitted or top-dose-only effect; inactive = flat fitted curve, though single readings scatter.
Pick from active, inactive when you respond.

Would you mind telling me which call this test gave CN(C(=O)C(Cl)Cl)c1ccc(OC(=O)c2ccco2)cc1 ?
inactive

Could you kindly confirm the outcome this assay logged for CCO[C@H](Cc1ccc(OCCc2ccc(OS(C)(=O)=O)cc2)cc1)C(=O)O ?
inactive

In this assay, the call recorded for N#Cc1cc(NC(=O)C(=O)O)c(Cl)c(NC(=O)C(=O)O)c1 was what?
inactive

----------
# System: AA1029
# ASSAY PROTOCOL: qHTS profiling for inhibitors of Plasmodium falciparum proliferation (AID 504749); note: nearly all actives have a fitted effect of over 60% in size
# ASSAY CONDITIONS: P. falciparum in erythrocytes, SYBR Green DNA, 72 h; series mostly up to 28.7 µM
Inconclusive results are not listed. Activity calls are given as the source filed them. Calls follow the shape of the dose curve; as a rule, active = well fitted inhibition curve with a large enough effect; inconclusive = small, poorly fitted or top-dose-only effect; inactive = flat fitted curve, though single readings scatter.
A correct response names exactly one class from active, inactive

- COMPOUND: "Nc1ncnc2nc[nH]c12"
  CLASS NAME: "inactive"

Which outcome was assigned to O=C(Nc1ccc(Cl)cc1)Nc1ccc(Cl)c(Cl)c1 in this test?
active

Assay outcome for CN1CCCN(C(c2ccccc2)c2ccc(Cl)cc2)CC1 (stereo unspecified) : what was it?
active

Field: outcome | Entry: CCCCCCCCCCCCCCCC[n+]1ccccc1
active

Which outcome was entered for the compound CC(NCCC(c1ccccc1)c1ccccc1)c1ccccc1 (stereo unspecified) in this test?
active

Dear all, I need the recorded test outcome for O=S(=O)(O)c1ccc2nc(-c3ccccc3)[nH]c2c1 , thank you.
inactive

----------
# ASSAY PROTOCOL: qHTS of pediatric cancer cell lines to identify multiple opportunities for drug repurposing: Primary screen for SK-N-MC cells (AID 1347093)
# ASSAY CONDITIONS: SK-N-MC viability, CellTiter-Glo luminescence, 48 h; series mostly up to 46 µM
# Description: Drug repurposing or repositioning has been offered as a strategy for drug development in oncology programs. […] [1] Shen, M et al. Quantitative high-throughput phenotypic screening of pediatric cancer cell lines identifies multiple opportunities for drug repurposing. […] Cells were assayed in growth media at a density of 500-1,000 cells/well. […] After a 15 min incubation at room temperature, samples were analyzed for luminescence intensity using a ViewLux High-throughput CCD imager equipped with clear filters.
Results filed as inconclusive are left out. Calls of active or inactive are those of the source. Calls follow the shape of the dose curve; as a rule, active = well fitted cell-killing curve with a large enough effect; inconclusive = small, poorly fitted or top-dose-only effect; inactive = no such curve, though single readings can be large or run the other way.
Returns: one label drawn from class 1 (active), class 0 (inactive)

Test call, this compound: O=C(O)CCCC[P+](c1ccccc1)(c1ccccc1)c1ccccc1
class 0

What did the test return for CC[N+]1(CC)CCC(=C(c2ccccc2)c2ccccc2)C1C (stereo not given) ?
class 1

Check the results log: what was the call for CN(C)CCOC1=Cc2ccccc2Sc2ccc(Cl)cc21 ?
class 0

Query: recorded result category for CNC[C@H](O)[C@@H](O)[C@H](O)[C@H](O)CO in this test
class 0

I would be grateful if you could indicate the recorded call for CC(C)CCCC(C)NCCC(C)C (stereo not given) .
class 0

I'd appreciate the recorded outcome for CCC(=O)O[C@H]1[C@H](O[C@@H]2[C@@H](C)[C@H](O[C@H]3C[C@@](C)(OC)[C@@H](O)[C@H](C)O3)[C@@H](C)C(=O)O[C@H](CC)[C@@](C)(O)[C@H](O)[C@@H](C)C(=O)[C@H](C)C[C@@]2(C)O)O[C@H](C)C[C@@H]1N(C)C from this test.
class 0

State the result this test recorded for OCc1cccnc1 .
class 0

# outcome recorded in this test, key = O=C(O)CCCC[C@@H]1SC[C@@H]2NC(=O)N[C@@H]21
class 0

Entry CCc1cc2cc(OC)c(OC)cc2c(Cc2ccccc2)n1 : call = ?
class 0

For this compound, state the assay outcome: [O-][n+]1cccc(/C(Cl)=N/OC[C@@H](O)CN2CCCCC2)c1
class 0
